experiment: MTT cytotoxicity assay, WISH cell line; type: cell-based; settings: human, WISH cells (human amnion)
reported endpoint: IC50 at 24 h (µM)
Quick reminder: number only, in µM, skip the unit.

Entry COc1cccc2c1C(=O)c1c(O)c3c(c(O)c1C2=O)C[C@@](O)(C(=O)CO)C[C@@H]3O[C@H]1C[C@H](N)[C@H](O)[C@H](C)O1 — recorded IC50 at 24 h = 3.18
